Measured values drawn from paper PMC4155688 for this set.

B1: RlucII-GRK2 (wild type) [human] / α2AAR-GFP^2 [not stated] (parent)
chain 1: MADLEAVLADVSYLMAMEKSKATPAARASKKILLPEPSIRSVMQKYLEDRGEVTFEKIFSQKLGYLLFRDFCLNHLEEARPLVEFYEEIKKYEKLETEEERVARSREIFDSYIMKELLACSHPFSKSATEHVQGHLGKKQVPPDLFQPYIEEICQNLRGDVFQKFIESDKFTRFCQWKNVELNIHLTMNDFSVHRIIGRGGFGEVYGCRKADTGKMYAMKCLDKKRIKMKQGETLALNERIMLSLVSTGDCPFIVCMSYAFHTPDKLSFILDLMNGGDLHYHLSQHGVFSEADMRFYAAEIILGLEHMHNRFVVYRDLKPANILLDEHGHVRISDLGLACDFSKKKPHASVGTHGYMAPEVLQKGVAYDSSADWFSLGCMLFKLLRGHSPFRQHKTKDKHEIDRMTLTMAVELPDSFSPELRSLLEGLLQRDVNRRLGCLGRGAQEVKESPFFRSLDWQMVFLQKYPPPLIPPRGEVNAADAFDIGSFDEEDTKGIKLLDSDQELYRNFPLTISERWQQEVAETVFDTINAETDRLEARKKAKNKQLGHEEDYALGKDCIMHGYMSKMGNPFLTQWQRRYFYLFPNRLEWRGEGEAPQSLLTMEEIQSVEETQIKERKCLLLKIRGGKQFILQCDSDPELVQWKKELRDAYREAQQLVQRVPKMKNKPRSPVVELSKVPLVQRGSANGL
chain 2: MFRQEQPLAEGSFAPMGSLQPDAGNASWNGTEAPGGGARATPYSLQVTLTLVCLAGLLMLLTVFGNVLVIIAVFTSRALKAPQNLFLVSLASADILVATLVIPFSLANEVMGYWYFGKAWCEIYLALDVLFCTSSIVHLCAISLDRYWSITQAIEYNLKRTPRRIKAIIITVWVISAVISFPPLISIEKKGGGGGPQPAEPRCEINDQKWYVISSCIGSFFAPCLIMILVYVRIYQIAKRRTRVPPSRRGPDAVAAPPGGTERRPNGLGPERSAGPGGAEAEPLPTQLNGAPGEPAPAGPRDTDALDLEESSSSDHAERPPGPRRPERGPRGKGKARASQVKPGDSLPRRGPGATGIGTPAAGPGEERVGAAKASRWRGRQNREKRFTFVLAVVIGVFVVCWFPFFFTYTLTAVGCSVPRTLFKFFFWFGYCNSSLNPVIYTIFNHDFRRAFKKILCRGDRKRIV

Variants of: B1
assay: BRET
experimental_context: with α2AAR-GFP^2; HEK293T cells; 100 μm NOR for 6 min; read off a plot
I'd appreciate it if you could supply response values for the items below.
Answer with the value's number alone.

input: Which response value belongs to chain 1 G475I ?
output: 0.016

input: Which response value belongs to chain 1 D3A ?
output: 0.026

input: Which response value belongs to chain 1 D481A ?
output: 0.049

input: Which response value belongs to chain 1 K220R ?
output: 0.032

input: Which response value belongs to chain 1 E18A ?
output: 0.05

input: Which response value belongs to chain 1 D10A ?
output: 0.026

input: Which response value belongs to chain 1 I485A ?
output: 0.018

input: Which response value belongs to chain 1 A482I ?
output: 0.059

input: Which response value belongs to chain 1 M15A ?
output: 0.027

input: Which response value belongs to chain 1 D10R ?
output: 0.041

input: Which response value belongs to chain 1 P473E ?
output: 0.033
